pIC50: −log10 of the molar value.
Entries with reported pIC50 on Human PI3K beta (Homo sapiens, UniProt P42338)
Sequence (P42338 whole entry): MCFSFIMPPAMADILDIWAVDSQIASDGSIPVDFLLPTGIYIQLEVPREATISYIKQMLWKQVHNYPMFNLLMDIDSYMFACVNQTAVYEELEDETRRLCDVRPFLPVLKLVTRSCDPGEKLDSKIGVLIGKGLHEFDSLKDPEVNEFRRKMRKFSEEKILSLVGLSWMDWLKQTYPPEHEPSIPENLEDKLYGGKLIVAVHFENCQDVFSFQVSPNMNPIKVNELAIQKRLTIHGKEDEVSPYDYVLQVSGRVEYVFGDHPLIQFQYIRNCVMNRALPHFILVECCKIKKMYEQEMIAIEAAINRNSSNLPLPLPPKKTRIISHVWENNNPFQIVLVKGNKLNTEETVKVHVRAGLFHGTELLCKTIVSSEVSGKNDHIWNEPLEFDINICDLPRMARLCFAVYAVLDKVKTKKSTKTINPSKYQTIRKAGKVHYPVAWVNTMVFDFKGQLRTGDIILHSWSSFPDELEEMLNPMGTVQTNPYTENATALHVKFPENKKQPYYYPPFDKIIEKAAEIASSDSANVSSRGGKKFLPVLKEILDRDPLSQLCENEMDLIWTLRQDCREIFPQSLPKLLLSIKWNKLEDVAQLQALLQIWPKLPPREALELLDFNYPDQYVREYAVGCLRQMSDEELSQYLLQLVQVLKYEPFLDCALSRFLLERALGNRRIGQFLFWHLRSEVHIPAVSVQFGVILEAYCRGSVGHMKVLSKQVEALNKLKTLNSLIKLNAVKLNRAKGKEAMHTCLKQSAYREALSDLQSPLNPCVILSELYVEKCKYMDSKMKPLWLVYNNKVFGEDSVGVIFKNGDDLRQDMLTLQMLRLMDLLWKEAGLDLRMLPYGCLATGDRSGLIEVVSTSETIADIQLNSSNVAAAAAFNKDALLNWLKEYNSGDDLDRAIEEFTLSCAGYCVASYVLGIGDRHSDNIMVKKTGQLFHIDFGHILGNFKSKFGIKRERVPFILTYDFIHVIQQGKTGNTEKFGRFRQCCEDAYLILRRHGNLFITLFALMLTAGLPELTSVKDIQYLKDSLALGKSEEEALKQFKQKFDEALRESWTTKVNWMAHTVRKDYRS
Sequence (P27986 whole entry partner): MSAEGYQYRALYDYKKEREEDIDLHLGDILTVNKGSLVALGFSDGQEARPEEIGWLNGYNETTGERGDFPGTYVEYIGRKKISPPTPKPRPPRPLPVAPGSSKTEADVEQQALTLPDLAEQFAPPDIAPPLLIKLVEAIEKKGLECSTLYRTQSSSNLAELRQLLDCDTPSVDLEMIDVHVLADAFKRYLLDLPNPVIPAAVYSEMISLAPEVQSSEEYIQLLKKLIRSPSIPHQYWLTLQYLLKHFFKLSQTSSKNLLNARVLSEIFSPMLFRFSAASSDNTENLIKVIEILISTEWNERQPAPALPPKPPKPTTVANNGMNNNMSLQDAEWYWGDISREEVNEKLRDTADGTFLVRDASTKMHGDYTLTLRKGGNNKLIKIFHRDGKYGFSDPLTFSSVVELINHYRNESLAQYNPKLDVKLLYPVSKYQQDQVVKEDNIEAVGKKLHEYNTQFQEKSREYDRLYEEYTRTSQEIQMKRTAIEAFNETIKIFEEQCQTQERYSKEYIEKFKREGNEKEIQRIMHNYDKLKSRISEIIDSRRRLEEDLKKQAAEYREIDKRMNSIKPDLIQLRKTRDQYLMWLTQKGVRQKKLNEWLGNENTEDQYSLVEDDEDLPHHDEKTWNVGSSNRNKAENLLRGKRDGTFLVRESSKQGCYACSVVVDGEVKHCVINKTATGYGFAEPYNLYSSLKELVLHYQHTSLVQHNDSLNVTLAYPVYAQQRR

Recorded pIC50, per entry:
1. CC(=O)Nc1cc(-c2cc(C(O)c3ccc(Cl)cc3)c(-c3nnc[nH]3)s2)ccn1 (stereo not drawn) [Compound 41]
> 7.00
2. CC(=O)Nc1cc(-c2nc(C(O)c3ccc(Cl)cc3)c(-c3ncc[nH]3)s2)ccn1 (stereo not drawn) [Compound 60]
6.00 to 7.00

Please examine the following record next.
// Input: Clc1ccc(C(c2cc(-c3ccncc3)sc2-c2nnc[nH]2)N2CCC2)cc1 (stereo not drawn) [Compound 51] . Output its pIC50 only.
> 7.00
